- PROTOCOL SUMMARY: protease stability score; higher = more stable; yeast display proteolysis, trypsin and chymotrypsin;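 further: relative to predicted unfolded state with 0 unfolded-like and 1 meaning tenfold more protease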
Returns MET if the recorded protease stability score is greater than or equal to 0.8, and NOT MET otherwise.

Here are 3 sequences together with their reported answers.
**Query** Check this sequence for protease stability score at or above 0.8: SEEEESTHVWSRLFSHAIETGDEDLLERLIDPHVKLIVDGRELHGREELLTWIRRLFRHLGIDHMEVRIKNFDIINGRIRVEDELLLIVNGKEIRLETKVTVEKFDGKWHNQEVKIE
**Result** NOT MET

**Query** Next entry: SEDEEHARRVLEEMIDARLTGDEDKYETLLDPNVRFHQGEWSFHGMEELSRIVHHEARRIDHHEVRLKELRVVNGRVHSRTLLKLDFNGVEYRLKIELIITKVDGRWLLKEVRVR
**Result** MET

**Query** Next entry: NEDEEEARRWLEFFIKLYETGDEHMLEKMIDPDTRSYIDGKEFVGREEIRKLLRHLRIEHIHVKRFRAVNGKIDFDTHIVGEFNGRRKNTDVHIRATKIDGQWYLHEVDWK
**Result** MET

Further cases:
**Query** Check this sequence for protease stability score at or above 0.8: TELREIFIHFAEMILENIQTGDEDTLDELADPNTRIDINGVTMHGREKISRHWKEHLDRYDHFRIEIKRIRSQGDFAENDVTLVIIYNGQRIRIRMEVEIIFVDGRIHSINERRE
**Result** NOT MET

**Query** Next entry: DEDEELVKKFFKEHSESNRTGDWHTIMKQADPNARIFINGVILHGRELFTEHMMRMVRRADHFHFHLEDMRVINGRAELDVHVHLNINGKIDNVETHFIVIKINGRWRLEESRFH
**Result** NOT MET

**Query** Next entry: DEEDREAHEAIRILIDLLRTGDFDSLTRLADPHVRLDIGDKRLHGMKDFSRWILELRIHNFDLRHFDLVGDKIHVEGSLHTEFNGKHHEIHIQINITKVNGRWKIDEVTSL
**Result** MET

**Query** Next entry: DEKEELVEYFWEVFLKSLRTGNWHEFVKMFDPDAKSHINGVHSIGRDHIATLILREHEEIRYTEIRERHIEVQGDKIHVHTEVDMFVGDKRIRTERHIHITIVNGRIKSMRVEIR
**Result** MET

###

Give protease stability score for every item shown.
- PROTOCOL SUMMARY: protease stability score; higher = more stable; yeast display proteolysis, trypsin and chymotrypsin;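 further: relative to predicted unfolded state with 0 unfolded-like and 1 meaning tenfold more protease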
One number for each entry.

Field: protease stability score. Fill in for each record below.
1. SEDERDIREAFKRWVHNVETGDFESLLKLFDPNVKTTIDGREYHGRDFLVRRLSEMRVHHIEIEHFDIQGDKVNVRGRMDGQIGDKRQDVHFVIHMVKINGRWLLTELTEK
2. SETEEAATLMLRMLIETIYTGDEETYKRLADPHVKVRIGDKTFHGREQVIERLHRTWKEMRIEDVEVQDMRYQGDFIRNRTHILLHQGEYRHRFDVEIIVFKFNGQWILTSQHFH
3. SEREEEARKMTRRIIHTFFTGNEDFWDHLVDPNARVVINGVTVHGWERFQELLVDFLKEMRTRHIELRHLDAYGDKAHTDGRVDGDVNGQRVLRIEHLRVDVINGKVHSVEIEFR
4. SEREEHTEEVWRDWLQSILTGDEDDLKRLADPHVRLEINFDGRTLIYHGREIVARFWSELRIRHFTLRHLKMIGDKIQVKGETKLEQGDKKVDSSVDLDTDIINGVIKREFVVYR
5. DEEERDARRVYEHLIENWETGNFDRVLELFDPHVKLIFNGQEFIGRDDVSKEINRIDHEHIDDFRLHSIRIVDGRIEIDGRIRFTLHVNGKTVHFDRKLILIMRKVDGRWIITSLHIR

**Result**
[2.23, 1.11, 0.916, 0.892, 2.09]

Field: protease stability score. Fill in for each record below.
1. SEEDKESEEAFKIAKELLETGDEDLHKHLFDPNARLVVGDKHHHGRELLVKFWSDFGIDHIEIHDIKLVNGRLDTDTTVRFNGRTLKMRIIIIKVNGKWEIKSMTVH
2. HEHEELLREYVERLLEIWRTGDEEKFMKNADPNVRIVYGDKDVHGREIWVEHFKRLFEELGFKYIDLRRVELINGVLHVHGNWNVNGRERKTELEFKIIDGRITSVQIRVH
3. REEESEWKKFFEDLLRSLVTGDESSLSKMIDPHARLDVDGREFHGREHMAHWIVRTLNEHGITIKIEIKDFRLVGDKVHVDGHEDIEVGDKRHERRLHIILLKFNGRWVIKELKVE

**Result**
1. 0.667
2. 1.27
3. 2.67

Field: protease stability score. Fill in for each record below.
1. DEKTEEIERFFKKWVEALRTGDWKTLMELLDPNARFDINGREIIGREIYVKILKEELKHFGVTRIHNEVEIKHSDEQGNKLNLDGKLIINWDGKNDETRLILYVLKVDGRWIIEEVRIR
2. DEEHDIDRKIFEMIVDVFLTGDWKRWFDNADPDVKTEIRIGDKKIDLHGWEFFLRFLEEELRRFKNIQIMSTDVKLFNGKVDVNIEIRIGDKTQHYIYHIHTFNGVIKHVHVHSK

**Result**
1. 1.44
2. 1.28

**Query** Could you share which protease stability score value was measured for DEEEERTERVSQLFWELFLTGDEEELFKLVDPHVRSHVGDKDYHGRETAHEIWHRIKNVRMRLDHVELRIVNGRADLHVRGKLIIGDKKVELNIEILVVKVNGQWLVERIRVETK ?
**Result** 1.31

###

- PROTOCOL SUMMARY: protease stability score; higher = more stable; yeast display proteolysis, trypsin and chymotrypsin;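 further: relative to predicted unfolded state with 0 unfolded-like and 1 meaning tenfold more protease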
OBSERVATION TYPE: protease stability score

Observe how each entry below is paired with its result.
**Query** Could you share which protease stability score value was measured for DDEHHDAVRVIEEFVTSVLTGNWEILKELLDPNVKFEIDGREIWGREFVNREIEEIRIRSRMEVRSVRFQGEKMEVDTEYNVDLNIGDKRFHYRRSTRVILEKYDGRWRIQSFHFE ?
**Result** 0.284

**Query** Next entry: SEDEHELREFVNRYLHAMKTGDEDMLRDLLDPHVRFLIDGKNYHGREWVVAIFREFGIDRVEFELKDSEVQGDKVHIDGRVHINGQERSTEFRLEKYNGKWFLREEHYH
**Result** 1.5

Field: protease stability score. Fill in for each record below.
1. DEHKEEFREWVERLEHVLKTGNEDELHELADPDVKVRIGDKEIHGMHEVLRFILEFYKKLGIDHRHLRIDDYRVQGDFLHIDGHLELTFNGRKHTHQLHIVVLKVNGRWILKEIRVS
2. HEEEELERTILELVLHYLKTGDEHFMKNMADPNARSTIGDKDLHGREWMSEVWKRIKNVRIEIDRVDMINGVVHLHITVEYNGRRTHLTLHAEKVDGRWIIRELRVE
3. TEDEEAARRHTQEWIHAVRTGDEELLERMIDPEYKLDYNGVDIIGREEYIRIRSEQLQKFKNMRIEVRIHELRHQGDKIDLDVLIIEKWNGVTFRERSHLVILKFDGRWFIRFTSIK
4. SEEDEHSERALTLLNHLIMTGDFHDWERFFDPHVRFVVNGVEFHGREDVVRFLLELLERFKNVKIEMESWEIQGDKITSHYHEHVNGVRIERTVIMRKFNGRWFIQEVRFN
5. DEVHEEAERASEHFFESLLTGDEKSTESFIDPHAKMEFSFNGRNYDMIGRMWVEIEHRLLGIDHYIHKDNRTHSQGEKLLLIIHGRIRVGDKEFDVELHVIMMKIDGQWNVKRLEVRVK

**Result**
[2.25, 1.61, 0.801, 0.281, 1.25]

###

- PROTOCOL SUMMARY: protease stability score; higher = more stable; yeast display proteolysis, trypsin and chymotrypsin;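 further: relative to predicted unfolded state with 0 unfolded-like and 1 meaning tenfold more protease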
Give protease stability score for every item shown.
Numbers only.

Observe how each entry below is paired with its result.
**Query** Could you share which protease stability score value was measured for SEMEHQSRKILEDTLRQWLTGDWHSLHELMDPNTKLDVGDKHFHGREAVKVFLERADHVKDLQIDHMRIQGDKIETDVHMHVTVGDKEKDVEVELIVLKVNGKWLLRSASIK ?
**Result** 1.22

**Query** Next entry: SELEKHLEDVASMWLKVIQTGDWDKLFELADPNVRFEQIYGDKKVELHGREEMIEWLRKFMEQMRTEHRIHSMEVQGDKVHLDTRVILDFNGVRIHLETRVIIIVVNGRLHSYSEHVK
**Result** 1.31

**Query** Next entry: SDEQEMLTRIIEIFFHAVLTGDEETLIEMLDPHARLDVNGVTVIGMEKIWHHVEEMRFKDTKIHDIDVQGNKMKVDGRLDGQINGREHRFRTIIIIEKINGKWLVKRIIIL
**Result** 2.44

**Query** Next entry: NEREKLVLDLAMRWFEAWLTGDEHLLHLLADPNVRFIYGDKHLIGMDELHRFLREIRIISRDRHFEDKRVIGDKVELDVRLRGEVDFNGRRLDIDLTVHIESHIINGKQHTSRMETI
**Result** 1.07

**Query** Next entry: TEEERSTRIAWEIWEMVHKTGDERLIRRFADPNVRIQIGEYNHHGREELENHTKRIDHLHVQDSDVKRVHHFDGQVHIDVHEIIHLEFDGVREDIKRRAHFVVVKYDGRWYLHHVKFH
**Result** 0.937

Field: protease stability score. Fill in for each record below.
1. DEDRKMAEHWIRIWYHLVETGDEEEINNFADPHTRMEVNGVEFHGRELVKHSNHKLLRDAGVDKIHVEIHEMRVIGNKVEIHGTIRFNGQEYHFILIVLKVNGRWVIESMKHE
2. DKLEKWAEHMVHLIFRAFETGDWRMLSKYFDPDTRHHVGNFHLVGMEDFIKLARELSERLGMEIDRVHVRHFDTQGDKLTVEIIVHSRVGDKEETRETIILVSKYNGRWHLSSIEIK
3. DESEELAKQFMEVLARSMRTGDEEKIVKMLDPNVKVVINGVELHGREALEHILREIRVEDVWLTHIFVQGEKVRIDYREKGEFNGRLDTLTVHIIVKKIDGKWKITEFRIH

**Result**
1: 0.724; 2: 1.39; 3: 1.89

Field: protease stability score. Fill in for each record below.
1. SEEEEEAERIYRNWLHNLHTGNEESERLMADPDVRYEINGVERVGWEEVHHFLREIRVHLRHVEIKHSDLINGRAHIEGHVDMEVRVNGVTMRIRTDTILRVVVIDGRLKSVSQEIL
2. SEHTHAAVRIMELESEYLTTGDWESVRRLLDPHVQVEIGDFHAHGWEERVRRMREIRVKVQDLRIRTIDFYNGRVELHFELHVRIEFNGRDVRQDTEIVLIVLKVNGKWLVDKIRFE

**Result**
1: 0.648; 2: 0.901

Field: protease stability score. Fill in for each record below.
1. DSLEEMTRKWFEKWVRDLKTGDEQSMTELADPHVRFLQGDKEYHGRELFTELESEKRKRFDHLELRLHSMEVQGDKLHIDSRMILKIGDFVLKLNVYLHVLKIDGRWLLEEIRIK
2. DEDHRIAHEIFRLLFHLLSTGDEDIFNQMADPHVQSIVGDKEFHGREQLRKAWHEIRVHRSDIHSVEIRVINGRVRNDMRIRYDGEINGKKIDTDIHMEVVIDKYNGRWIIRSVSIEII
3. DETEEAVLSVARLWLHLFLTGDEERTQKMMDPNARVEIDGKEVVGREKVTDMIRHKIEQIRIQDHKEKDIKVIGDKVHLHVQFHGEVDGKEINTLILINVMVVDGRIKHVEIRVS
4. DEEEKRAHEIVRRFLKWFLTGDEEASRKNMDPSVIMVINIGDKRIELHGMEQVSEFWHETVRRYDHIDIKLKDIEVQGDKAVTHGHLELRVGDKRFETDVQIILIYIDGRISFMSVNIV
5. SEEDEDKELVRHLVEKLIKTGDETLMHEMFDPNARLRVNGRDFHGRESIVKAMLEFLRWLGVDHIHFEHIIVRIVDGRIEINVTVRVEQGDKRTELRIHTRATKIDGKWILTSLTLDVR
6. SEDERFWVERLEEVLRAILTGDEDRIRELADPDVRVRYGDKELHGWKDLHEFMEFFKNVRINVRHVRNQGDKQEVDSEFTFEGRRHETELRLVVINGRVRHIEIIIR

**Result**
[0.704, 2.16, 0.77, 2.48, 1.13, 1.41]
